- protocolDescription: MDCK permeability assay
- Format: in vitro ADME, canine
- experimentalContext: dog; MDCK monolayer, B–A direction
- Method: Six selected compounds were assessed for metabolic stability (clearance) in mouse liver microsomes (MLM) and human liver microsomes (HLM), and apparent permeability (Papp) using a MDCK permeability assay. […] Although currently limited by solubility and permeability, its metabolic profile provides a starting point for targeted structural modifications aimed at overcoming these challenges.
measureName: Papp B→A (×10⁻⁶ cm/s)

compound: Cc1cccc(CN(C)c2ncnc3[nH]cc(-c4ccc(NCc5cccnc5)nc4)c23)c1
unitOfMeasure: ×10⁻⁶ cm/s
observedValue: 4.4

compound: Cc1cccc(CN(C)c2ncnc3[nH]c(-c4ccc(NCc5ccc(C(F)(F)F)nc5)nc4)cc23)c1 [Compound 14c]
unitOfMeasure: ×10⁻⁶ cm/s
observedValue: 0.8

compound: CN(Cc1ccc(NCc2ccccc2)nc1)c1ncnc2[nH]ccc12
unitOfMeasure: ×10⁻⁶ cm/s
observedValue: 24.7

compound: CN(Cc1ccc(NCc2ccccn2)nc1)c1ncnc2[nH]ccc12
unitOfMeasure: ×10⁻⁶ cm/s
observedValue: 28.8

compound: FC(F)(F)c1ccc(CNc2ccc(Cc3c[nH]c4ncc(Cl)cc34)cn2)cn1 [Pexidartinib, reference compound]
unitOfMeasure: ×10⁻⁶ cm/s
observedValue: 1.5

compound: CN(Cc1ccc(NCc2ccc(C(F)(F)F)nc2)nc1)c1ncnc2[nH]ccc12
unitOfMeasure: ×10⁻⁶ cm/s
observedValue: 10

----------
- protocolDescription: MDCK permeability assay
- Type: in vitro ADME, canine
- experimentalContext: dog; MDCK monolayer; read-out: MDCK Ratio (Papp B–A/A–B)
measureName: efflux ratio

compound: Cc1cccc(CN(C)c2ncnc3[nH]cc(-c4ccc(NCc5cccnc5)nc4)c23)c1
observedValue: 0.27
--
compound: CN(Cc1ccc(NCc2ccc(C(F)(F)F)nc2)nc1)c1ncnc2[nH]ccc12
observedValue: 0.55
--
compound: CN(Cc1ccc(NCc2ccccn2)nc1)c1ncnc2[nH]ccc12
observedValue: 0.69
--
compound: CN(Cc1ccc(NCc2ccccc2)nc1)c1ncnc2[nH]ccc12
observedValue: 0.72
--
compound: Cc1cccc(CN(C)c2ncnc3[nH]c(-c4ccc(NCc5ccc(C(F)(F)F)nc5)nc4)cc23)c1 [Compound 14c]
observedValue: 0.14

----------
Each entry below lists one item and its recorded Papp A→B value.
- protocolDescription: MDCK permeability assay
- Type: in vitro ADME, canine
- experimentalContext: dog; MDCK monolayer, A–B direction

molecule: CN(Cc1ccc(NCc2ccccn2)nc1)c1ncnc2[nH]ccc12
unitOfMeasure: ×10⁻⁶ cm/s
Papp A→B: 42
//
molecule: Cc1cccc(CN(C)c2ncnc3[nH]cc(-c4ccc(NCc5cccnc5)nc4)c23)c1
unitOfMeasure: ×10⁻⁶ cm/s
Papp A→B: 15.9
//
molecule: CN(Cc1ccc(NCc2ccccc2)nc1)c1ncnc2[nH]ccc12
unitOfMeasure: ×10⁻⁶ cm/s
Papp A→B: 34
//
molecule: FC(F)(F)c1ccc(CNc2ccc(Cc3c[nH]c4ncc(Cl)cc34)cn2)cn1 [Pexidartinib, reference compound]
unitOfMeasure: ×10⁻⁶ cm/s
Papp A→B: 4.5
//
molecule: Cc1cccc(CN(C)c2ncnc3[nH]c(-c4ccc(NCc5ccc(C(F)(F)F)nc5)nc4)cc23)c1 [Compound 14c]
unitOfMeasure: ×10⁻⁶ cm/s
Papp A→B: 5.4
//
molecule: CN(Cc1ccc(NCc2ccc(C(F)(F)F)nc2)nc1)c1ncnc2[nH]ccc12
unitOfMeasure: ×10⁻⁶ cm/s
Papp A→B: 18.3

----------
- protocolDescription: Kinetic solubility
- Format: physicochemical
- experimentalContext: aqueous buffer, kinetic from dmso stock; spectrophotometric, pH 7.4 in HEPES buffer
Each entry below lists one item and its recorded log10 of solubility kinetic value.
measureName: log10 of solubility kinetic (log10 of the value in µM)

compound: Cc1cccc(CN(C)c2ncnc3[nH]c(-c4ccc(NCc5ccc(C(F)(F)F)nc5)nc4)cc23)c1 [Compound 14c]
log10 of solubility kinetic: -0.15
--
compound: CN(Cc1ccc(NCc2ccccn2)nc1)c1ncnc2[nH]ccc12
log10 of solubility kinetic: 2.64
--
compound: CN(Cc1ccc(NCc2ccccc2)nc1)c1ncnc2[nH]ccc12
log10 of solubility kinetic: 1.32
--
compound: Cc1cccc(CN(C)c2ncnc3[nH]cc(-c4ccc(NCc5cccnc5)nc4)c23)c1
log10 of solubility kinetic: 1.85
--
compound: CN(Cc1ccc(NCc2ccc(C(F)(F)F)nc2)nc1)c1ncnc2[nH]ccc12
log10 of solubility kinetic: 1.32
--
compound: FC(F)(F)c1ccc(CNc2ccc(Cc3c[nH]c4ncc(Cl)cc34)cn2)cn1 [Pexidartinib, reference compound]
log10 of solubility kinetic: 1.31

----------
- protocolDescription: Microsomal stability, mouse liver microsomes
- Format: in vitro ADME
- experimentalContext: mouse liver microsome
Mark criterion met only for MLM in vitro intrinsic clearing values smaller than 300 µL/min/mg; exact matches and larger values are criterion not met.

compound: CN(Cc1ccc(NCc2ccc(C(F)(F)F)nc2)nc1)c1ncnc2[nH]ccc12 [Compound 4c]
labelValue: criterion met

compound: CN(Cc1ccc(NCc2ccccn2)nc1)c1ncnc2[nH]ccc12 [Compound 4b]
labelValue: criterion met

compound: Cc1cccc(CN(C)c2ncnc3[nH]c(-c4ccc(NCc5ccc(C(F)(F)F)nc5)nc4)cc23)c1 [Compound 14c]
labelValue: criterion met

compound: CN(Cc1ccc(NCc2ccccc2)nc1)c1ncnc2[nH]ccc12 [Compound 4a]
labelValue: criterion met

compound: Cc1cccc(CN(C)c2ncnc3[nH]cc(-c4ccc(NCc5cccnc5)nc4)c23)c1 [Compound 8]
labelValue: criterion not met

----------
- subjectOfTest: CSF1R (Homo sapiens)
- Sequence (P07333 20-972): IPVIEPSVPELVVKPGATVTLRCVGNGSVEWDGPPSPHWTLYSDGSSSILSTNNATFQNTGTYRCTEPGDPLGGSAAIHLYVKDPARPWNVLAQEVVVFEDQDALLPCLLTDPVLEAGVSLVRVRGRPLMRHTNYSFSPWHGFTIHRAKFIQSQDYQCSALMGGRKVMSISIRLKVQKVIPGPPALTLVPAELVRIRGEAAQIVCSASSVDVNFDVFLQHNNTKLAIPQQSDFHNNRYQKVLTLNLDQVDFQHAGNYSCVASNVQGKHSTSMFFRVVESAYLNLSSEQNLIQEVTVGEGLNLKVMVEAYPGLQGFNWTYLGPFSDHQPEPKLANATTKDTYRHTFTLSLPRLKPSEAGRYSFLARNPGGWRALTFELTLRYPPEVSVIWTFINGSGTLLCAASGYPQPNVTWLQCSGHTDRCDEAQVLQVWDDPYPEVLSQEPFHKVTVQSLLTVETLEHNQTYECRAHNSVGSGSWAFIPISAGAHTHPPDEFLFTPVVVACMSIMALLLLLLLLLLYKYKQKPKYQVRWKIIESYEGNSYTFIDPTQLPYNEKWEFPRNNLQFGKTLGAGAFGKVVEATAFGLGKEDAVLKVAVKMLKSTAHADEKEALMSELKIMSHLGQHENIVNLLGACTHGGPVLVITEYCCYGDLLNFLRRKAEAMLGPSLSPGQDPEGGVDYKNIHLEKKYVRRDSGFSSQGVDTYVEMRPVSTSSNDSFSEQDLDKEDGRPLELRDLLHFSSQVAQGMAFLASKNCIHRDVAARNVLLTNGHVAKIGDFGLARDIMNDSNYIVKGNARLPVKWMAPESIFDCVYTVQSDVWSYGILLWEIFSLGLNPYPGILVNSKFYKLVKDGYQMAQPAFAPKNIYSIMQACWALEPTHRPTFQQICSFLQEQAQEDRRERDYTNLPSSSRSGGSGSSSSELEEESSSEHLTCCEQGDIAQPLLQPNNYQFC
measureName: IC50 (nM)

compound: Cc1cccc(CN(C)c2ncnc3[nH]c(-c4ccc(NCc5ccccc5)nc4)cc23)c1 [Compound 14a]
subjectOfTest: CSF1R (Homo sapiens)
comparativeSign: =
observedValue: 6
//
compound: Cc1cccc(CN(C)c2ncnc3[nH]c(-c4ccc(NCc5cccc(C)c5C)nc4)cc23)c1 [Compound 12d]
subjectOfTest: CSF1R (Homo sapiens)
comparativeSign: >
observedValue: 1000
//
compound: COc1ccc(CNc2ccc(-c3cc4c(N(C)Cc5cccc(C)c5)ncnc4[nH]3)cn2)cc1 [Compound 12e]
subjectOfTest: CSF1R (Homo sapiens)
comparativeSign: =
observedValue: 10.5

----------
- subjectOfTest: CSF1R (Homo sapiens)
Each entry below lists one item and its recorded IC50 value.

molecule: CN(Cc1ccc(NCc2ccccc2)nc1)c1ncnc2[nH]ccc12
unitOfMeasure: nM
comparativeSign: =
IC50: 857
//
molecule: Cc1cccc(CN(C)c2ncnc3[nH]cc(-c4ccc(NCc5cccnc5)nc4)c23)c1
unitOfMeasure: nM
comparativeSign: >
IC50: 1000
//
molecule: Cc1cccc(CN(C)c2ncnc3[nH]c(-c4ccc(NCc5ccc(C(F)(F)F)nc5)nc4)cc23)c1 [Compound 14c]
unitOfMeasure: nM
comparativeSign: =
IC50: 7.18
//
molecule: CN(Cc1ccc(NCc2ccc(C(F)(F)F)nc2)nc1)c1ncnc2[nH]ccc12
unitOfMeasure: nM
comparativeSign: >
IC50: 1000

Reference source for all entries: paper PMC12196264
